- system_tested: Fuc(a1-2)[GalNAc(a1-4)]Gal(b1-4)GlcNAc
- method_summary: glycan array binding signal (z-score within array); higher = stronger binding
- stated_conditions: glycan notation: IUPAC condensed, linker removed
The entries come from a sample that favours the strongest signals as a whole.
measurement_label: glycan array binding signal (z-score)
Answers are plain numbers.

| binder | glycan array binding signal (z-score) |
| --- | --- |
| OGAN (protein) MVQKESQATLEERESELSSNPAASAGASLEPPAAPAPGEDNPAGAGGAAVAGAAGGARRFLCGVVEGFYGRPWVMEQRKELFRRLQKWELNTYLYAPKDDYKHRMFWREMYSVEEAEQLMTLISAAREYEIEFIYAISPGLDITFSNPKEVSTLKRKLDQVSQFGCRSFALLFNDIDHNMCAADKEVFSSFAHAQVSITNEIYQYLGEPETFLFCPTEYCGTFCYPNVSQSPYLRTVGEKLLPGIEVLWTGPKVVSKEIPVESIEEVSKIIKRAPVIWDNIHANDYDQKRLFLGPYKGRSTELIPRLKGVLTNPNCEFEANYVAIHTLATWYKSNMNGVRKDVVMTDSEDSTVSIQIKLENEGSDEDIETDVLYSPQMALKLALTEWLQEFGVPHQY | -0.033 |

Now, please, on to the next binder.
IN: Complete the entry with glycan array binding signal (z-score) for SCA (Schizophyllum commune) (protein) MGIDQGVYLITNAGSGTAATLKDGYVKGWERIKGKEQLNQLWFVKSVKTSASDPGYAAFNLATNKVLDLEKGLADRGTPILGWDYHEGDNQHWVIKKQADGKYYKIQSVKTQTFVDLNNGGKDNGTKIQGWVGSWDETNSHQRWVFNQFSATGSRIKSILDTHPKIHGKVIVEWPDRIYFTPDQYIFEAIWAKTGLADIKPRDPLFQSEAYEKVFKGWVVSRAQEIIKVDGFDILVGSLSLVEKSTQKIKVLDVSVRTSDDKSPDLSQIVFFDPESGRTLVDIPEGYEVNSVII
OUT: 0.703
